Would you mind telling me the reported growth of each entry?
- Tested on: SR leukemia
- ASSAY_REMARKS: NCI-60 one-dose screen, 48 h (100 = growth as untreated, 0 = no growth, -100 = all killed)
- PROTOCOL_CONDITIONS: 10 µM unless noted
Compounds without any hit were thinned out: in the full panel of roughly 83,000, 20% have a hit.
Could you give me the number in %? Just the number is fine.

Prompt: Give SR leukemia growth for the following compound: "COC12C=C/C(=C(/C(=O)OCc3ccccn3)C(=O)CCCCCCCCC3(OC)C=C/C(=C(/C(=O)OCc4ccccn4)C(=O)CCCCCCCC1)O3)O2"
Response: -9.81

Prompt: Give SR leukemia growth for the following compound: "COc1ccc(-c2cn(Cc3ccc4c(Br)cc(Br)c(O)c4n3)nn2)cc1"
Response: -23.1

Prompt: Give SR leukemia growth for the following compound: COC(=O)c1nc(-c2ccccc2)oc1S(=O)(=O)NCC(c1ccc(Cl)cc1)N1CCCCC1 (stereo not given)
Response: -3.58

Prompt: Give SR leukemia growth for the following compound: "COc1ccc(C(=O)/C=C/c2ccc(C)cc2)cc1S(N)(=O)=O"
Response: 5.31

Prompt: Give SR leukemia growth for the following compound: "Cc1c2ccncc2c(C)c2c1c1ccccc1n2CCCCCC(=O)O"
Response: 65.1

Prompt: Give SR leukemia growth for the following compound: "Cc1cccc(C)c1NC(=O)Nc1ccccc1"
Response: 68.6

Prompt: Give SR leukemia growth for the following compound: "CCC(=C(c1ccc(OCCN(CC)CC)cc1)c1ccc(OCCN(CC)CC)cc1)c1ccc(Cl)cc1"
Response: -39.7

Prompt: Give SR leukemia growth for the following compound: "CC/C(=C(/c1ccc(Cl)cc1)c1ccc(OCCN2CCCC2)cc1)c1ccccc1"
Response: -10.5

Prompt: Give SR leukemia growth for the following compound: "COc1cc2cc(Oc3ccc(NC(=O)Nc4ccc(F)c(C(F)(F)F)c4)cc3)c(C)nc2cc1OCCN1CCCCC1"
Response: -46.1

Prompt: Give SR leukemia growth for the following compound: "N/C(=N\c1nc2ccccc2s1)NC(=O)Nc1ccccc1"
Response: 15.7

Prompt: Give SR leukemia growth for the following compound: CCOC(=O)CC1CSC(N/N=C/c2ccc(O)cc2)=N1 (stereo not given)
Response: 98.5

Prompt: Give SR leukemia growth for the following compound: "CCCCCCCC/C=C\CCCCCCCCOc1ccc(CC(=O)NCC[N+]2(C)CCCC2)cc1"
Response: 50.3

Prompt: Give SR leukemia growth for the following compound: "O=C(CSc1nnc(-c2cc(-c3ccc(Cl)cc3)nc3ccccc23)n1-c1ccccc1)Nc1ccc(Cl)cc1"
Response: 78.6

Prompt: Give SR leukemia growth for the following compound: "N#Cc1c(-c2ccc(F)cc2)cc(-c2cccc(Cl)c2)[nH]c1=O"
Response: 113

Prompt: Give SR leukemia growth for the following compound: "CS(=O)(=O)c1ccc(/C(=N/NC(N)=S)c2ccc(F)cc2)cc1"
Response: 103

Prompt: Give SR leukemia growth for the following compound: "C1=C2CCCC3=Cc4ccccc4OC23Oc2ccccc21"
Response: 6.44

Prompt: Give SR leukemia growth for the following compound: "COc1ccc2c(c1)c(-c1nc(-c3cn(C)c4ccncc34)cs1)cn2C"
Response: -26.1

Prompt: Give SR leukemia growth for the following compound: "O=C1/C(=C/c2ccccc2)COc2ccc(O)cc21"
Response: 17.6

Prompt: Give SR leukemia growth for the following compound: COc1ccc(S(=O)(=O)NC2c3ccccc3CC2O)cc1OC (stereo not given)
Response: 100

Prompt: Give SR leukemia growth for the following compound: "CC(C)(C)n1cc(-c2ccnc(NCCNS(=O)(=O)c3cccc4ccccc34)c2)c(-c2cccc(O)c2)n1"
Response: 30.1

Prompt: Give SR leukemia growth for the following compound: CCn1c2ccccc2c2cc(C(O)c3cccc4ncccc34)ccc21 (stereo not given)
Response: 15.5

Prompt: Give SR leukemia growth for the following compound: "CC(C)(C#N)c1cc(C(=O)Nc2cc(Nc3ncccc3-c3ncnc4nc[nH]c34)ccc2F)cc(C(F)(F)F)c1"
Response: 52.4

Prompt: Give SR leukemia growth for the following compound: "CCOC(=O)/C(=C/c1ccc([N+](=O)[O-])cc1)C(=O)c1ccccc1"
Response: 4.07

Prompt: Give SR leukemia growth for the following compound: "O=C(N/N=C/c1ccccc1Cl)c1ccccc1Nc1ccnc(C(F)(F)F)c1"
Response: -3.24

Prompt: Give SR leukemia growth for the following compound: "Cn1cc(-c2csc(-c3cn(CCO)c4ccc(F)cc34)n2)c2cccnc21"
Response: 20.7

Prompt: Give SR leukemia growth for the following compound: C/C=C(/C)C(=O)O[C@@H]1CC(C)(C)CC2C34OC(=O)[C@@]21CC[C@@]3(C)[C@]1(C)CCC2C(C)(C)C(=O)CC[C@]2(C)C1C[C@@H]4O (stereo not given in full)
Response: 28.5

Prompt: Give SR leukemia growth for the following compound: "Cc1c(N2CCCCC2)[nH]c2ccccc12"
Response: 119

Prompt: Give SR leukemia growth for the following compound: CCN1C(=O)N(CC)C2C1NN=c1s/c(=C\c3ccccc3)c(=O)n12 (stereo not given)
Response: 14.8

Prompt: Give SR leukemia growth for the following compound: "Cc1ccc(Nc2oc(-c3ccccc3)nc2[P+](c2ccccc2)(c2ccccc2)c2ccccc2)cc1"
Response: 8.76

Prompt: Give SR leukemia growth for the following compound: "CC1(C)CCC[C@]23C(=O)O[C@](O)(C(=O)C4=C[C@@](C)(/C=C/CCCc5ccc6ccc7cccc8ccc5c6c78)CC[C@@]42O)[C@@H]13"
Response: 9
